What IC50 was measured for each of the following?
Target: full-length beta-Catenin (Uniprot ID P35222) (Homo sapiens)
Construct: 10 nM full-length beta-Catenin (Uniprot ID P35222)
Assay: Fluorescence polarization IC50 (beta-catenin / 5FAM-TCF4 10-53 competition)
Assay type: binding
Details: fluorescence polarization; read-out: beta-Catenin FP IC50
Report the figure in nM without appending any unit label.

input: Suppose we examine the compound CC[C@H](C)[C@@H]1NC(=O)[C@H](CC(=O)O)NC(=O)[C@]2(CC=CCCCC3(CCCC=CCCCCCC[C@@](C)(C(=O)N[C@@H](Cc4ccccc4OC)C(=O)N[C@@H](Cc4csc5ccccc45)C(=O)N[C@@H](CCC(N)=O)C(N)=O)NC(=O)[C@H](CC(N)=O)NC(=O)[C@H](Cc4ccccc4)NC(=O)[C@H](C)NC(=O)[C@H](C)NC(=O)[C@H](CC(=O)O)NC(=O)[C@H](CC(=O)O)NC3=O)NC1=O)CCCN2C(C)=O (stereo partly drawn) [I-550] ; what IC50 value has been reported?
output: 30

input: Okay, and CC(=O)N1CCC[C@]12CC=CCCCCC1(CCCCC=CCCCOC(=O)N3CC[C@@](C(=O)N[C@@H](Cc4ccccc4C(F)(F)F)C(=O)N[C@@H](Cc4csc5ccccc45)C(=O)N[C@@H](CCC(N)=O)C(N)=O)(C3)NC(=O)[C@H](CC(C)C)NC(=O)[C@H](Cc3ccccc3)NC(=O)[C@H](C)NC(=O)[C@H](C)NC(=O)[C@H](Cc3cccc(C(=O)O)c3)NC(=O)[C@H](CC(=O)O)NC1=O)NC(=O)[C@H](CC(C)(C)C)NC(=O)[C@H](CC(=O)O)NC2=O (stereo partly drawn) [I-2512] ?
output: 245

input: Okay, and CC(=O)N1CCC[C@]12CC=CCCCC1(CCCC=CCCCOC(=O)N3CC[C@@](C(=O)N[C@@H](Cc4ccsc4)C(=O)N[C@@H](Cc4csc5ccccc45)C(=O)N[C@H](CO)[C@@H](C)O)(C3)NC(=O)[C@H](CCO)NC(=O)[C@H](Cc3ccccc3)NC(=O)[C@H](C)NC(=O)[C@H](C)NC(=O)[C@H](CC(=O)O)NC(=O)[C@H](CC(=O)O)NC1=O)NC(=O)[C@H](CC(C)(C)C)NC(=O)[C@H](CC(=O)O)NC2=O (stereo partly drawn) ?
output: 6

----------
Assay: Solubility in PBS
Type: physicochemical
Conditions: Solubility (uM)
readout-label: Solubility (µM)
Report the figure in µM without appending any unit label.

input: Suppose we examine the compound CC(=O)N1CCC[C@]12CC=CCCCC1(CCCC=CCCCCCC[C@@](C)(C(=O)N[C@@H](Cc3ccccc3)C(=O)N[C@@H](Cc3csc4ccccc34)C(=O)N[C@@H](CCC(N)=O)C(N)=O)NC(=O)[C@H](CCC(N)=O)NC(=O)[C@H](Cc3ccccc3)NC(=O)[C@H](C)NC(=O)[C@H](C)NC(=O)[C@H](CCC(=O)O)NC(=O)[C@H](CC(=O)O)NC1=O)NC(=O)[C@H]([C@@H](C)O)NC(=O)[C@H](CC(=O)O)NC2=O (some centres unmarked) [I-477] ; what Solubility value has been reported?
output: 49

input: Okay, and CC(=O)N1CCC[C@]12CC=CCCCC1(CCCC=CCCCOC(=O)N3CC[C@@](C(=O)N[C@@H](Cc4ccccc4)C(=O)N[C@@H](Cc4csc5ccccc45)C(=O)N[C@@H](CCC(N)=O)C(N)=O)(C3)NC(=O)[C@H](CO)NC(=O)[C@H](Cc3cccc(C(F)(F)F)c3)NC(=O)[C@H](C)NC(=O)[C@H](C)NC(=O)[C@H](CC(=O)O)NC(=O)[C@H](CC(=O)O)NC1=O)NC(=O)[C@H](CC1CCCCC1)NC(=O)[C@H](CC(=O)O)NC2=O (some centres unmarked) [I-1125] ?
output: 45

----------
What IC50 was measured for each of the following?
Target: beta-catenin/TCF4 engagement (Homo sapiens, UniProt P35222)
Construct: expressed in transfected cells; host or cells: HEK293
Sequence (P35222 whole entry): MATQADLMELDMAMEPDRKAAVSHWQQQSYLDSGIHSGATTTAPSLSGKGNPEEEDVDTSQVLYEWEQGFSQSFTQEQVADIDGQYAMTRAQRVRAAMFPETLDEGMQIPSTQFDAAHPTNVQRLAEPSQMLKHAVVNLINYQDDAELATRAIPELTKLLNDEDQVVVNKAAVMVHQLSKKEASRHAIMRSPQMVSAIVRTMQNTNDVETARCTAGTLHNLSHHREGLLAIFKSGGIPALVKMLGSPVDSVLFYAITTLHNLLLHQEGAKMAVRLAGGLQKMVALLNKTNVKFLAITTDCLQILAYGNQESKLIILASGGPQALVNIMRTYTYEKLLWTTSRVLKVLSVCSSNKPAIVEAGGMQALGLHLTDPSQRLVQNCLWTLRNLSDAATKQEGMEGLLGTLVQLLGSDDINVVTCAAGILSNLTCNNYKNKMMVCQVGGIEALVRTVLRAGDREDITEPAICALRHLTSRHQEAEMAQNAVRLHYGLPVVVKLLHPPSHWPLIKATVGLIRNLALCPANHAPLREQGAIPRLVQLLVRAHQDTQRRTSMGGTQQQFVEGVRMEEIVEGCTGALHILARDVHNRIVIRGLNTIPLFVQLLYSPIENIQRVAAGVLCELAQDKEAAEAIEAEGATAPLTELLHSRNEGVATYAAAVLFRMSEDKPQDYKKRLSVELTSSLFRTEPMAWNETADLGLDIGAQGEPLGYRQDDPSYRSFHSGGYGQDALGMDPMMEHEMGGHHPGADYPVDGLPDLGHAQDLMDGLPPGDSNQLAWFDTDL
Test: Nano-BRET target engagement assay (B-cat-Halo & TCF4-Luc in HEK293 cells)
Type: cell-based
Conditions: read-out: NanoBRET Abs IC50

input: Notebook entry, beta-catenin/TCF4 engagement (Homo sapiens, UniProt P35222) assay: IC50 of CC(=O)N1CCC[C@]12CC=CCCCC1(CCCC=CCCCOC(=O)N3CC[C@@](C(=O)N[C@@H](Cc4ccsc4)C(=O)N[C@@H](Cc4csc5ccccc45)C(=O)N[C@@H](Cc4c[nH]cn4)C(N)=O)(C3)NC(=O)[C@H](CC(N)=O)NC(=O)[C@H](Cc3ccccc3)NC(=O)[C@H](C)NC(=O)[C@H](C)NC(=O)[C@H](CC(=O)O)NC(=O)[C@H](CC(=O)O)NC1=O)NC(=O)[C@H](CCC(C)C)NC(=O)[C@H](CC(=O)O)NC2=O (some centres unmarked) [I-788] = ?
output: 21.6 µM

input: Okay, and CC(=O)N1CCC[C@]12CC=CCCCC1(CCCC=CCCCOC(=O)N3CC[C@@](C(=O)N[C@@H](Cc4ccccc4Cl)C(=O)N[C@@H](Cc4csc5ccccc45)C(=O)N[C@@H](CO)C(N)=O)(C3)NC(=O)[C@H](CC(C)C)NC(=O)[C@H](Cc3ccccc3)NC(=O)[C@H](C)NC(=O)[C@H](C)NC(=O)[C@H](Cc3cccc(C(=O)O)c3)NC(=O)[C@H](CC(=O)O)NC1=O)NC(=O)[C@H](CC(C)(C)C)NC(=O)[C@H](CC(N)=O)NC2=O (some centres unmarked) [I-1853] ?
output: 16.3 µM

input: Okay, and CCCCCCCC(=O)NCCCC[C@@H]1NC(=O)[C@H](C)NC(=O)[C@H](CC(=O)O)NC(=O)[C@H](CC(=O)O)NC(=O)C2(CCCC=CCCCOC(=O)N3CC[C@@](C(=O)N[C@@H](Cc4ccsc4)C(=O)N[C@@H](Cc4csc5ccccc45)C(=O)N[C@@H](CCC(N)=O)C(N)=O)(C3)NC(=O)[C@H](CC(N)=O)NC(=O)[C@H](Cc3ccccc3)NC1=O)CCCC=CC[C@]1(CCCN1C(C)=O)C(=O)N[C@@H](CC(=O)O)C(=O)N[C@@H](CC(C)(C)C)C(=O)N2 (some centres unmarked) [I-898] ?
output: > 20 µM

input: Okay, and CC(=O)N1CCC[C@]12CC=CCCCC1(CCCC=CCCCOC(=O)N3CC[C@@](C(=O)N[C@@H](Cc4ccsc4)C(=O)N[C@@H](Cc4csc5ccccc45)C(=O)N[C@@H](CCC(N)=O)C(N)=O)(C3)NC(=O)[C@H](CCCNC(N)=O)NC(=O)[C@H](Cc3ccccc3)NC(=O)[C@H](C)NC(=O)[C@H](C)NC(=O)[C@H](CC(=O)O)NC(=O)[C@H](CC(=O)O)NC1=O)NC(=O)[C@H](CC(C)(C)C)NC(=O)[C@H](CC(=O)O)NC2=O (some centres unmarked) [I-805] ?
output: 18.5 µM

input: Okay, and CC(=O)N1CCC[C@]12CC=CCCCC1(CCCC=CCCCCOC(=O)N3CC[C@@](C(=O)N[C@@H](Cc4ccsc4)C(=O)N[C@@H](Cc4csc5ccccc45)C(=O)N[C@@H](CCC(N)=O)C(=O)N[C@@H](C)C(N)=O)(C3)NC(=O)[C@H](CC(N)=O)NC(=O)[C@H](Cc3ccccc3)NC(=O)[C@H](C)NC(=O)[C@H](C)NC(=O)[C@H](CC(=O)O)NC(=O)[C@H](CC(=O)O)NC1=O)NC(=O)[C@H](CC(C)(C)C)NC(=O)[C@H](CC(=O)O)NC2=O (some centres unmarked) [I-825] ?
output: 27.5 µM

----------
Target: beta-catenin/TCF4 engagement (Homo sapiens, UniProt P35222)
Construct: expressed in transfected cells; host or cells: HEK293
Test: Nano-BRET target engagement assay (B-cat-Halo & TCF4-Luc in HEK293 cells)
Format: cell-based
Settings: absolute IC50; read-out: NanoBRET Abs IC50
readout-label: IC50 (µM)
Report the figure in µM without appending any unit label.

input: Suppose we examine the molecule CC(=O)N1CCC[C@]12CC=CCCCC1(CCCC=CCCCOC(=O)N3CC[C@@](C(=O)N[C@@H](Cc4ccccc4Cl)C(=O)N[C@@H](Cc4csc5ccccc45)C(=O)N[C@@H](CCC(N)=O)C(N)=O)(C3)NC(=O)[C@H](Cc3ccc(C(F)(F)F)cc3)NC(=O)[C@H](Cc3ccccc3)NC(=O)[C@H](C)NC(=O)[C@H](C)NC(=O)[C@H](CC(=O)O)NC(=O)[C@H](CC(=O)O)NC1=O)NC(=O)[C@H](CC(C)(C)C)NC(=O)[C@H](CC(=O)O)NC2=O (some centres unmarked) ; what IC50 value has been reported?
output: 9.9

----------
Target: full-length beta-Catenin (Uniprot ID P35222) (Homo sapiens, UniProt P35222)
Construct: 10 nM full-length beta-Catenin (Uniprot ID P35222)
Sequence (P35222 whole entry, one chain of several): as the sequence (P35222 whole entry) above
Test: Fluorescence polarization IC50 (beta-catenin / 5FAM-TCF4 10-53 competition)
Format: binding
Conditions: fluorescence polarization; read-out: beta-Catenin FP IC50
readout-label: IC50 (nM)
Report the figure in nM without appending any unit label.

input: Suppose we examine the molecule CC(=O)N1CCC[C@]12CC=CCCCC1(CCCC=CCCCOC(=O)N3CC[C@@](C(=O)N[C@@H](Cc4ccsc4)C(=O)N[C@@H](Cc4csc5ccccc45)C(=O)N[C@@H](CCC(N)=O)C(N)=O)(C3)NC(=O)[C@H](CC(C)C)NC(=O)[C@H](Cc3ccccc3)NC(=O)[C@H](C)NC(=O)[C@H](C)NC(=O)[C@H](CCn3cc(C(C)(C)C(=O)O)nn3)NC(=O)[C@H](CC(=O)O)NC1=O)NC(=O)[C@H](CC(C)(C)C)NC(=O)[C@H](CC(=O)O)NC2=O (stereo partly drawn) ; what IC50 value has been reported?
output: 8

input: Okay, and CC(=O)N1CCC[C@]12CC=CCCCC1(CCCC=CCCCCCC[C@@](C)(C(=O)N[C@@H](Cc3ccccc3Cl)C(=O)N[C@@H](Cc3csc4ccccc34)C(=O)N[C@@H](CCC(N)=O)C(N)=O)NC(=O)[C@H](CC(N)=O)NC(=O)[C@H](Cc3ccccc3)NC(=O)[C@H](C)NC(=O)[C@H](C)NC(=O)[C@H](CCC(=O)O)NC(=O)[C@H](CC(=O)O)NC1=O)NC(=O)[C@H](C)NC(=O)[C@H](CC(=O)O)NC2=O (stereo partly drawn) ?
output: 70

input: Okay, and CC(=O)N1CCC[C@]12CC=CCCCC1(CCCC=CCCCOC(=O)N3CCC(C(=O)N[C@@H](Cc4ccccc4C(F)(F)F)C(=O)N[C@@H](Cc4csc5ccccc45)C(=O)N[C@@H](CCC(N)=O)C(N)=O)(CC3)NC(=O)[C@H](CC(C)C)NC(=O)[C@H](Cc3ccccc3)NC(=O)[C@H](C)NC(=O)[C@H](C)NC(=O)[C@H](Cc3cccc(C(=O)O)c3)NC(=O)[C@H](CC(=O)O)NC1=O)NC(=O)[C@H](CC(C)(C)C)NC(=O)[C@H](CC(=O)O)NC2=O (stereo partly drawn) [I-2582] ?
output: 263

input: Okay, and CC(=O)N1CCC[C@]12CC=CCCCC1(CCCC=CCCCOC(=O)N3CC[C@@](C(=O)N[C@@H](Cc4ccsc4)C(=O)N[C@@H](Cc4csc5ccccc45)C(=O)N[C@@H](CCC(N)=O)C(N)=O)(C3)NC(=O)[C@H](CC(N)=O)NC(=O)[C@H](Cc3ccccc3)NC(=O)[C@H](C)NC(=O)[C@H](C)NC(=O)[C@H](CC(=O)O)NC(=O)[C@H](CC(=O)O)NC1=O)NC(=O)[C@H](CC(C)(C)C)NC(=O)[C@H](Cn1cc(C(C)(C)C(=O)O)nn1)NC2=O (stereo partly drawn) ?
output: 3860

input: Okay, and CC(=O)N1CCC[C@]12CC=CCCCC1(CCCC=CCCCOC(=O)N3CC[C@@](C(=O)N[C@@H](Cc4ccsc4)C(=O)N[C@@H](Cc4csc5ccccc45)C(=O)N[C@@H](CCC(N)=O)C(N)=O)(C3)NC(=O)[C@H](CC(C)C)NC(=O)[C@H](Cc3ccccc3)NC(=O)[C@H](C)NC(=O)C(C)(C)NC(=O)[C@H](CC(=O)O)NC(=O)[C@H](CC(=O)O)NC1=O)NC(=O)[C@H](CC(C)(C)C)NC(=O)[C@H](CC(=O)O)NC2=O (stereo partly drawn) ?
output: 25

input: Okay, and CC(=O)N1CCC[C@]12CC=CCCCC1(CCCC=CCCCOC(=O)N3CC[C@@](C(=O)N[C@@H](Cc4ccccc4C(F)(F)F)C(=O)N[C@@H](Cc4csc5ccccc45)C(=O)N[C@@H](C)C(N)=O)(C3)NC(=O)[C@H](CC(C)C)NC(=O)[C@H](Cc3ccccc3)NC(=O)[C@H](C)NC(=O)[C@H](CCC(N)=O)NC(=O)[C@H](Cn3cc(C(C)(C)C(=O)O)nn3)NC(=O)[C@H](CC(=O)O)NC1=O)NC(=O)[C@H](CC(C)(C)C)NC(=O)[C@H](CC(=O)O)NC2=O (stereo partly drawn) ?
output: 14

input: Okay, and CC(=O)N1CCC[C@]12CC=CCCCC1(CCCC=CCCCOC(=O)N3CC[C@@](C(=O)N[C@@H](Cc4ccccc4Cl)C(=O)N[C@@H](Cc4csc5ccccc45)C(=O)N[C@@H](CO)C(N)=O)(C3)NC(=O)[C@H]([C@@H](C)O)NC(=O)[C@H](Cc3ccccc3)NC(=O)[C@H](C)NC(=O)[C@H](CC(C)C)NC(=O)[C@H](CC(=O)O)NC(=O)[C@H](CC(=O)O)NC1=O)NC(=O)[C@H](Cc1ccccc1)NC(=O)[C@H](CC(=O)O)NC2=O (stereo partly drawn) ?
output: 14

input: Okay, and CC(=O)N1CCC[C@]12CC=CCCCC1(CCCC=CCCCOC(=O)N3CC[C@@](C(=O)N[C@@H](Cc4cccc(C5CC5)c4)C(=O)N[C@@H](Cc4ccccc4)C(=O)N[C@@H](CCC(N)=O)C(N)=O)(C3)NC(=O)[C@H](CC(C)C)NC(=O)[C@H](Cc3ccccc3)NC(=O)[C@H](C)NC(=O)[C@H](C)NC(=O)[C@H](Cc3cccc(C(=O)O)c3)NC(=O)[C@H](CC(=O)O)NC1=O)NC(=O)[C@H](CC(C)(C)C)NC(=O)[C@H](CC(=O)O)NC2=O (stereo partly drawn) ?
output: 1540

input: Okay, and CC(=O)N1CCC[C@]12CC=CCCCC1(CCCC=CCCCOC(=O)N3CC[C@@](C(=O)N[C@@H](Cc4ccsc4)C(=O)N[C@@H](Cc4csc5ccccc45)C(=O)N[C@@H](CCO)C(N)=O)(C3)NC(=O)[C@H](CC(C)C)NC(=O)[C@H](Cc3ccccc3)NC(=O)[C@H](C)NC(=O)[C@H](C)NC(=O)[C@H](CC(=O)O)NC(=O)[C@H](CC(=O)O)NC1=O)NC(=O)[C@H](CC(C)(C)C)NC(=O)[C@H](CC(=O)O)NC2=O (stereo partly drawn) ?
output: 23
